# Organism: Rattus norvegicus
# test-method-notes: Open TG-GATES - Regimen: Daily Repeat
# Assay type: toxicity, organism-based, Sprague-Dawley
# Parameters: regimen Daily Repeat, gender Male, age 6 weeks
# reported-conditions: in vivo, po, 0 mg/kg, […], tissue Kidney, route gavage, dose level Control, time 7 day
measurement-label: KIDNEY_TOTAL (g)
I only need the number, in g, no unit after it.

Check out these entries, answers already filled in.
>  <compound>
CC(C)C(=O)Nc1ccc([N+](=O)[O-])c(C(F)(F)F)c1 [FLUTAMIDE]

>  <measure-unit>
g

>  <numeric-result>
2.2

$$$$
>  <compound>
Oc1ncnc2[nH]ncc12 [ALLOPURINOL]

>  <measure-unit>
g

>  <numeric-result>
2.1

$$$$
>  <compound>
CN1C(=O)OC(C)(C)C1=O [TRIMETHADIONE]

>  <measure-unit>
g

>  <numeric-result>
2.3

$$$$
>  <compound>
CCC(C)(C)C(=O)O[C@H]1C[C@@H](C)C=C2C=C[C@H](C)[C@H](CC[C@@H]3C[C@@H](O)CC(=O)O3)[C@H]21 [SIMVASTATIN]

>  <measure-unit>
g

>  <numeric-result>
2.2

$$$$

Answer with the recorded KIDNEY_TOTAL for the compound listed here: C[C@]12CCC(=O)C=C1CC[C@@H]1[C@@H]2CC[C@@]2(C)[C@H]1CC[C@]2(C)O [METHYLTESTOSTERONE] 2.3

Answer with the recorded KIDNEY_TOTAL for the compound listed here: CC(C)(S)[C@@H](N)C(=O)O [PENICILLAMINE] 2.2

Answer with the recorded KIDNEY_TOTAL for the compound listed here: CC(=N)S [THIOACETAMIDE] 2.1

Answer with the recorded KIDNEY_TOTAL for the compound listed here: CC(=O)Oc1cc(C(C)C)c(OCCN(C)C)cc1C [MOXISYLYTE] 2.1

Answer with the recorded KIDNEY_TOTAL for the compound listed here: CCc1oc2ccccc2c1C(=O)c1cc(I)c(O)c(I)c1 [BENZIODARONE] 2.3

Answer with the recorded KIDNEY_TOTAL for the compound listed here: CCSCC[C@H](N)C(=O)O [ETHIONINE] 2.2

Answer with the recorded KIDNEY_TOTAL for the compound listed here: CCN1CCCC1CNC(=O)c1cc(S(N)(=O)=O)ccc1OC (centres undefined) [SULPIRIDE] 2.2

Answer with the recorded KIDNEY_TOTAL for the compound listed here: `Nc1nc(N)c2nc(-c3ccccc3)c(N)nc2n1` 2.3

Answer with the recorded KIDNEY_TOTAL for the compound listed here: O=C(N[C@H](CO)[C@H](O)c1ccc([N+](=O)[O-])cc1)C(Cl)Cl [CHLORAMPHENICOL] 2.4

Answer with the recorded KIDNEY_TOTAL for the compound listed here: C[C@](N)(Cc1ccc(O)c(O)c1)C(=O)O [METHYLDOPA] 2
